target: trehalose-releasing enzyme (Rhizobium sp. M-11); construct: M-11, about 58-68 kDa; assay type: biochemical, Rhizobium species M-11; details: 20% substrate, 2 units/g, 40° C., pH7.0, 48 hours; glucose, maltose, maltotriose, maltotetraose or maltopentaose respectively
Sequence (Q53238 whole entry): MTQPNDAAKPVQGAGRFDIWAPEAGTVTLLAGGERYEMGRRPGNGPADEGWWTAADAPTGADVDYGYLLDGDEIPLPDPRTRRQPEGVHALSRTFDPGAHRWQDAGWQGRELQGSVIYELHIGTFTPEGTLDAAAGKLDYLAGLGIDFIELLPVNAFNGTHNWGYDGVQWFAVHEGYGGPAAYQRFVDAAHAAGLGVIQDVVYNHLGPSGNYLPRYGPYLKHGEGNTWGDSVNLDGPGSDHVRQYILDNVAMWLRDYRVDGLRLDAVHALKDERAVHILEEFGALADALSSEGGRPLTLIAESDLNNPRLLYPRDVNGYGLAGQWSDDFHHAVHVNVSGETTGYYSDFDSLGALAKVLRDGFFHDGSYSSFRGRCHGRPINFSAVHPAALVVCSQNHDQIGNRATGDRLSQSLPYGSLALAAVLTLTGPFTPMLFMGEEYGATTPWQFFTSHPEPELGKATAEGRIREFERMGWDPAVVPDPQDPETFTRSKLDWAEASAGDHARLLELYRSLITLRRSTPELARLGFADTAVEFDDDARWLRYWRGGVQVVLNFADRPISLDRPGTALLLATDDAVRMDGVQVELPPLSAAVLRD
Assay readout: Composition: reducing saccharide formed (%)
Reply numerically in %, unit not repeated.

Examples with their reported Composition: reducing saccharide formed follow.
Mol smiles	Target or test system	Assay readout	Observed measurement
OC[C@H]1O[C@H](O[C@H]2O[C@H](CO)[C@@H](O[C@H]3O[C@H](CO)[C@@H](O[C@H]4O[C@H](CO)[C@@H](O)[C@H](O)[C@H]4O)[C@H](O)[C@H]3O)[C@H](O)[C@H]2O)[C@H](O)[C@@H](O)[C@@H]1O	trehalose-releasing enzyme (Rhizobium sp. M-11)	Composition: reducing saccharide formed	44.4
OC[C@H]1O[C@H](O[C@H]2O[C@H](CO)[C@@H](O[C@H]3O[C@H](CO)[C@@H](O)[C@H](O)[C@H]3O)[C@H](O)[C@H]2O)[C@H](O)[C@@H](O)[C@@H]1O	trehalose-releasing enzyme (Rhizobium sp. M-11)	Composition: reducing saccharide formed	6.5

Exercise: # return Composition: reducing saccharide formed for "OC[C@H]1O[C@H](O[C@H]2O[C@H](CO)[C@@H](O[C@H]3O[C@H](CO)[C@@H](O[C@H]4O[C@H](CO)[C@@H](O[C@H]5O[C@H](CO)[C@@H](O)[C@H](O)[C@H]5O)[C@H](O)[C@H]4O)[C@H](O)[C@H]3O)[C@H](O)[C@H]2O)[C@H](O)[C@@H](O)[C@@H]1O" , test system: trehalose-releasing enzyme (Rhizobium sp. M-11)
Solution: 60.0
